# SYSTEM_NAME: Delta-type opioid receptor (Mus musculus) (UniProt P32300)
# Sequence (P32300 whole entry, looked up): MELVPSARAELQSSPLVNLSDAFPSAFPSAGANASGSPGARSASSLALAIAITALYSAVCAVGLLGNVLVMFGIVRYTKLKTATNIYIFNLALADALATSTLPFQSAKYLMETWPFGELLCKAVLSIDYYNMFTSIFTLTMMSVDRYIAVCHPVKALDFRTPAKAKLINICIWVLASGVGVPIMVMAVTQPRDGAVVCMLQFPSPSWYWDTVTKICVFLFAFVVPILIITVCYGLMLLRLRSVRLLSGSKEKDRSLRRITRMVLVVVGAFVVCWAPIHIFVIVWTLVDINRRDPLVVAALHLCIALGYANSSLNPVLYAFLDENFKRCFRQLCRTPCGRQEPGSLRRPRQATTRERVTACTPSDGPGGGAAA
# ASSAY_EXPLANATION: Ability to induce 50% of maximal effect in mouse vas deferens expressing Opioid receptor delta 1
QUANTITY: IC50 (nM)
Numbers only, in nM.

Please report the recorded IC50 for CC1C2Cc3ccc(O)cc3C1(C)CCN2CCc1ccccc1 (stereo unspecified) .
8
